Origin of values: patent US20250154277A1

log10 EC50 by entry:
Target: T1, human 5T4-His protein (human, UniProt Q13641 32-355)
T1 construct: also called recombinant 5T4 protein (human 5T4-his tag); human 5T4 protein; not shown: His tag
T1 sequence (looked up): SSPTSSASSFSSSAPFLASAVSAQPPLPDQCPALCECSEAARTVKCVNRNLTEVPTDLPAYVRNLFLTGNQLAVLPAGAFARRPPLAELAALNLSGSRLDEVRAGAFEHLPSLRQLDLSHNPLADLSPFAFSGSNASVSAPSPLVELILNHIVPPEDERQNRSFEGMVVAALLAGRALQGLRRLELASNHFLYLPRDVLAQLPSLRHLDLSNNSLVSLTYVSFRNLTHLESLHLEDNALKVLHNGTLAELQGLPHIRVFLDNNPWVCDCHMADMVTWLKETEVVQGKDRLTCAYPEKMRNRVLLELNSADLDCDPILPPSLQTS
Assay: ELISA, coated 5T4-His
Values below are the log10 of the recorded EC50, with ng/mL as the unit.

Binder	Measurement Kind	Val
Hu14G12-20 (antibody, V domains shown, humanized) VH: QVQLVQSGAEVKKPGSSVKVSCKASGGTFSSSWMNWVKQAPGQGLEWIGRIYREDGHTNYNGKFKGRATLTADKSTSTAYMELSSLRSEDTAVYFCANGGAMDYWGQGTTVTVSS VL: DIQMTQSPSSLSASVGDRVTITCRASQDISNYLNWYQQKPGKVPKLLIYYTSRLHSGVPSRFSGSGSGTDYTLTISSLQPEDVATYFCQQDNTLPWTFGGGTKLEIK	log10 EC50	2.51
Hu14G12-6 (antibody, V domains shown, humanized) VH: EVQLVQSGAEVKKPGATVKISCKVSGYAFSSSWMNWVQQAPGKGLEWIGRIYREDGHTNYNGKFKGRVTITADTSTDTAYMELSSLRSEDTAVYFCANGGAMDYWGQGTLVTVSS VL: DIQMTQSPSSLSASVGDRVTITCRASQDISNYLNWYQQKPGKAPKLLIYYTSRLHSGVPSRFSGSGSGTDYTFTISSLQPEDIATYFCQQDNTLPWTFGGGTKLEIK	log10 EC50	1.00
Hu14G12-36 (antibody, V domains shown, humanized) VH: QVQLVQSGAEVKKPGASVKVSCKASGYAFSSSWMNWVRQAPGQGLEWMGRIYREDGHTNYNGKFKGRVTMTADKSTTTAYMELSSLRSEDTAVYYCANGGAMDYWGQGTLVTVSS VL: DIVMTQSPDSLAVSLGERATINCRASQDISNYLNWYQQKPGQPPKLLIYYTSRLHSGVPDRFSGSGSGTDYTLTISSLQAEDIAVYFCQQDNTLPWTFGGGTKVEIK	log10 EC50	0.83
Hu14G12-25 (antibody, V domains shown, humanized) VH: QVQLVQSGAEVKKPGSSVKVSCKASGYAFSSSWMNWVRQAPGQGLEWMGRIYREDGHTNYNGKFKGRVTITADKSTTTAYMELSSLRSEDTAVYYCANGGAMDYWGQGTLVTVSS VL: EIVMTQSPATLSLSPGERATLSCRASQDISNYLNWYQQKPGQAPRLLIYYTSRLHSGIPARFSGSGSGTDYTLTISSLEPEDIAVYFCQQDNTLPWTFGGGTKVEIK	log10 EC50	0.78
Hu14G12-41 (antibody, V domains shown, humanized) VH: QVQLVQSGAEVKKPGASVKVSCKASGYAFSSSWMNWVRQAPGQRLEWMGRIYREDGHTNYNGKFKGRVTITADKSATTAYMELSSLRSEDTAVYYCANGGAMDYWGQGTLVTVSS VL: DIVMTQSPDSLAVSLGERATINCRASQDISNYLNWYQQKPGQPPKLLIYYTSRLHSGVPDRFSGSGSGTDYTLTISSLQAEDIAVYFCQQDNTLPWTFGGGTKVEIK	log10 EC50	0.67

May I ask what log10 EC50 has been recorded for Hu14G12-21 (antibody, V domains shown, humanized) VH: QVQLVQSGAEVKKPGSSVKVSCKASGGTFSSSWMNWVKQAPGQGLEWIGRIYREDGHTNYNGKFKGRATITADKSTSTAYMELSSLRSEDTAVYFCANGGAMDYWGQGTTVTVSS VL: DIQMTQSPSSLSASVGDRVTITCRASQDISNYLNWYQQKPGKVPKLLIYYTSRLHSGVPSRFSGSGSGTDFTLTISSLQPEDVATYYCQQDNTLPWTFGGGTKLEIK ?
2.60
